Recorded values, source patent US7863271B2.

Target: 5-HT3 (Homo sapiens)
Experiment: Compound affinity for the human 5-HT3 receptor (Assay B), SPA radioligand binding with [9-methyl-3H]BRL-43694
Set-up: purchased Perkin Elmer
Conditions: Assay B (method B unless otherwise annotated); read-out: 5-HT3 Ki
Protocol: Compound Affinity for the human 5-HT3 Receptor (Assay B) The relative affinity of the various compounds for the human 5-HT3 receptor was measured in a radioligand binding assay, using a scintillation proximity assay (SPA) format. […] Radioactivity was counted in the TopCount microplate counter (Perkin Elmer) for 5 min. […] Specific binding was determined by subtracting nonspecific binding from total binding. […]
Counter-ions that a name gives are not always drawn.
PROPERTY_MEASURED: pKi
Please treat pKi as minus the base-10 logarithm of the molar concentration.

* CCNc1nc2c(C(=O)NC3CN4CCC3CC4)cccc2o1 (stereo not drawn) [Example 104, Hydrochloride] | 7.87
* CN1[C@@H]2CCC[C@H]1C[C@@H](NC(=O)c1cccc3oc(N4CCn5ccnc5C4)nc13)C2 [Example 79, Hydrochloride] | 7.53
* CN1CCN(c2nc3c(C(=O)NC4CN5CCC4CC5)cccc3o2)C(c2ccccc2)C1 (racemic) [Example 24, Dihydrochloride] | 6.99
* C[C@@H]1CNCCN1c1nc2c(C(=O)N[C@H]3C[C@H]4CCC[C@@H](C3)N4C)cccc2o1 [Example 41b, Hydrochloride] | 6.90
* C[C@H]1CN(C(=O)N(C)C)C[C@H](C)N1c1nc2c(C(=O)NC3CC4CCCC(C3)N4C)cccc2o1 (stereo partly drawn) [Example 136, Hydrochloride] | 8.59

May I ask what pKi has been recorded for C[C@H]1CNCCN1c1nc2c(C(=O)NC3CC4CCCC(C3)N4C)cc(Cl)cc2o1 (stereo partly drawn) [Example 57, Hydrochloride] ?
7.94

May I ask what pKi has been recorded for CCNc1nc2c(C(=O)N[C@H]3C[C@H]4CCC[C@@H](C3)N4C)cccc2o1 [Example 105, Hydrochloride] ?
8.48

May I ask what pKi has been recorded for Cc1cc(C(=O)NC2CN3CCC2CC3)c2nc(N)oc2c1 (stereo not drawn) [Example 127, Hydrochloride] ?
7.70

May I ask what pKi has been recorded for CN1[C@@H]2CCC[C@H]1C[C@@H](NC(=O)c1cccc3oc(N4CCNCC4(C)C)nc13)C2 [Example 102, Hydrochloride] ?
7.80

###

Molecular target: 5-HT3 (Homo sapiens, UniProt P46098)
Sequence (P46098 24-478): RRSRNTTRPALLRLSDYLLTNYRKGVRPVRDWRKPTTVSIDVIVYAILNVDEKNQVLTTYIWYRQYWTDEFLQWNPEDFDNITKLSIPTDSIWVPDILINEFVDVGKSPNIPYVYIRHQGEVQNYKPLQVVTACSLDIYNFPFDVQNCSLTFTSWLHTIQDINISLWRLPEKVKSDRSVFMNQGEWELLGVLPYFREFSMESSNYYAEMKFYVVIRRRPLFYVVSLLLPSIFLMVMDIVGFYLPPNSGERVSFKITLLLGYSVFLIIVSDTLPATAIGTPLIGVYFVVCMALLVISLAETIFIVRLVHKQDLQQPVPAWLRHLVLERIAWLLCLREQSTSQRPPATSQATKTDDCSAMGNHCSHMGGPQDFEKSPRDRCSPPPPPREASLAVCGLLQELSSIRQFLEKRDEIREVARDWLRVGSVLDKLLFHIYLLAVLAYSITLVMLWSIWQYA
Assay: Compound affinity for the human 5-HT3 receptor (Assay B), SPA radioligand binding with [9-methyl-3H]BRL-43694
Design: purchased Perkin Elmer
Settings: Assay B (method B unless otherwise annotated); read-out: 5-HT3 Ki
pKi: −log10 of the molar value. Where a name gives a salt, the structure may show the parent alone.
# binarize pKi: threshold 8 inclusive, high side 1.0, low side 0.0

- C[C@H]1CN(Cc2ccccc2)C(=O)[C@H](C)N1c1nc2c(C(=O)NC3CC4CCCC(C3)N4C)cccc2o1 (some centres unmarked) [Example 97, Hydrochloride]: 1.0

Evaluate CN1[C@@H]2CCC[C@H]1C[C@@H](NC(=O)c1cc(Cl)cc3oc(N)nc13)C2 [Example 111, Hydrochloride] : pKi at minimum 8?
1.0

Evaluate CN1[C@@H]2CCC[C@H]1C[C@@H](NC(=O)c1cccc3oc(N4CCNC(=O)C4)nc13)C2 [Example 86, Hydrochloride] : pKi at minimum 8?
0.0

Evaluate C[C@H]1COC[C@H](C)N1c1nc2c(C(=O)NC3CC4CCC(C3)N4C)cccc2o1 (some centres unmarked) [Example 101, Hydrochloride] : pKi at minimum 8?
1.0

Evaluate CN1CCCN(c2nc3c(C(=O)N[C@H]4C[C@H]5CCC[C@@H](C4)N5C)cccc3o2)CC1 [Example 11, Dihydrochloride] : pKi at minimum 8?
0.0

Evaluate CN1C2CCCC1CC(NC(=O)c1cccc3oc(N4CCOC[C@@H]4C(C)(C)C)nc13)C2 (some centres unmarked) [Example 68, Hydrochloride] : pKi at minimum 8?
1.0

Evaluate CC[C@H]1COCCN1c1nc2c(C(=O)NC3CC4CCCC(C3)N4C)cccc2o1 (some centres unmarked) [Example 36, Hydrochloride] : pKi at minimum 8?
1.0

Evaluate CN1C2CCCC1CC(NC(=O)c1cccc3oc(NC4CC5CCCC(C4)N5C)nc13)C2 (centres unmarked) [Example 37, Trihydrochloride] : pKi at minimum 8?
0.0

Evaluate CN1[C@@H]2COC[C@H]1C[C@@H](NC(=O)c1cccc3oc(Nc4ccccc4)nc13)C2 [Example 45, Hydrochloride] : pKi at minimum 8?
0.0

Evaluate CC(C)C[C@H]1CN(Cc2ccccc2)CCN1c1nc2c(C(=O)NC3CC4CCCC(C3)N4C)cccc2o1 (some centres unmarked) [Example 71, Hydrochloride] : pKi at minimum 8?
0.0

Evaluate CC(=O)N1C[C@H](C)N(c2nc3c(C(=O)NC4CC5CCCC(C4)N5C)cccc3o2)[C@@H](C)C1 (some centres unmarked) [Example 110, Hydrochloride] : pKi at minimum 8?
1.0

Evaluate CN1[C@@H]2CCC[C@H]1C[C@@H](NC(=O)c1cccc3oc(N4CCS(=O)(=O)CC4)nc13)C2 [Example 82, Hydrochloride] : pKi at minimum 8?
0.0
